# IC50 per entry
Target protein (sequence): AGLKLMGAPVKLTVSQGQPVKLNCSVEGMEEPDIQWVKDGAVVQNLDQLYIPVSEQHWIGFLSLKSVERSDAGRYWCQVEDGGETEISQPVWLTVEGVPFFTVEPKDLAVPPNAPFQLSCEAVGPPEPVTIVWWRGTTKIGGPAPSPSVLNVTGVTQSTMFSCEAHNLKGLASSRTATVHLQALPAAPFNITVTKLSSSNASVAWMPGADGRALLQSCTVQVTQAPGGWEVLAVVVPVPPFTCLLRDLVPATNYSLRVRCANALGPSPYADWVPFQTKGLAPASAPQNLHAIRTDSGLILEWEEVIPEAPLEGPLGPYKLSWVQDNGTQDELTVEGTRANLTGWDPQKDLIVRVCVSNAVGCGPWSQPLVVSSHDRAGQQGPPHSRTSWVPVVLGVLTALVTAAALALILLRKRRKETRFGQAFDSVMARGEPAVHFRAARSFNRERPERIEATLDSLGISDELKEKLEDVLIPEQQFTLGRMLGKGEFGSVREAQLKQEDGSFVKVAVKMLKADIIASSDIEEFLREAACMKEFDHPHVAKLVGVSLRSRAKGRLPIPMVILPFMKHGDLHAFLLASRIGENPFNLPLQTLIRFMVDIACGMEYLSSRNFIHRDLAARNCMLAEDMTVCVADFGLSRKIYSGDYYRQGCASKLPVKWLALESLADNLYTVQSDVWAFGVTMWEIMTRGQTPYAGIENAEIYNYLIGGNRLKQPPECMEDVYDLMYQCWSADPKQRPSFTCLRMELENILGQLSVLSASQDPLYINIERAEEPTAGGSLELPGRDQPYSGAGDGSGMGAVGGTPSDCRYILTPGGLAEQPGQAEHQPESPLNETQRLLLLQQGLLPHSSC

-- ask Bench note: what IC50 did COC[C@H](C)Nc1ncc2c(C)ncc([C@H]3CC[C@H](O)CC3)c2n1 show?
-- reply ≤ 100 nM

-- ask Try the molecule CCCC(C)Nc1ncc2c(NC3CCN(C(=O)C(F)(F)F)CC3)ncc([C@H]3CC[C@H](O)CC3)c2n1 (stereo partly drawn)
-- reply ≤ 100 nM

Attention now shifts to the item below.
-- ask Bench note: what IC50 did CC[C@H](C)Nc1ncc2c(OC3C[C@@H](C)O[C@@H](C)C3)ncc([C@H]3CC[C@H](O)CC3)c2n1 (stereo partly drawn) [Compound 275] show?
-- reply 100 to 1000 nM

----------
Target sequence: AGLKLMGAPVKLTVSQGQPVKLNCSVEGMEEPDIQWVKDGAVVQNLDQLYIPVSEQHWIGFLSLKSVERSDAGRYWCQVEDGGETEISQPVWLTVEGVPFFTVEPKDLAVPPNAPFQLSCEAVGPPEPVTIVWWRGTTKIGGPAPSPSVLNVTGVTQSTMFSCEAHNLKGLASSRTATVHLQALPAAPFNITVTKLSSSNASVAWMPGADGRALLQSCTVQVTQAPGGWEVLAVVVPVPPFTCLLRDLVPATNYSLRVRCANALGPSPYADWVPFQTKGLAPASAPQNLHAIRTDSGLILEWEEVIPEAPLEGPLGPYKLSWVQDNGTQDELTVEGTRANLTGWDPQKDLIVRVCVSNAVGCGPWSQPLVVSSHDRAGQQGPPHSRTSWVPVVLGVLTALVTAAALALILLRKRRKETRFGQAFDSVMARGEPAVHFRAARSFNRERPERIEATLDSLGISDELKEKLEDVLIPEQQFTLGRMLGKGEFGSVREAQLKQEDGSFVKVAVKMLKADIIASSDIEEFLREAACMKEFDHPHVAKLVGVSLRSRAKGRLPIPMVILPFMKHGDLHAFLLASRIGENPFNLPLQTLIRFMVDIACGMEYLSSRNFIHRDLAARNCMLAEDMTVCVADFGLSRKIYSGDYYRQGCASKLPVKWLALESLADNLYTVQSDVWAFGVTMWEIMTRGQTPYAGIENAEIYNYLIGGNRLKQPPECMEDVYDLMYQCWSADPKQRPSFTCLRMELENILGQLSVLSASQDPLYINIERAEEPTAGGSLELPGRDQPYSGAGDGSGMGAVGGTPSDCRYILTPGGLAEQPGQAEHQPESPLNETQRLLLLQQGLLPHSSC
pIC50: −log10 of the molar value.
# pIC50 per entry

-- ask Bench note: what pIC50 did C[C@@H](CC#N)Nc1ncc2c(OC3CCOCC3)ncc([C@H]3CC[C@H](O)CC3)c2n1 show?
-- reply 6.00 to 7.00

-- ask Try the molecule COC[C@H](C)Nc1ncc2c(OC3CCOCC3)ncc(-c3ccc(C#N)cc3)c2n1
-- reply 6.00 to 7.00

-- ask Try the molecule CC[C@H](C)Nc1ncc2c(Cl)ncc([C@H]3CC[C@H](O)CC3)c2n1
-- reply 6.00 to 7.00

-- ask Try the molecule CCCC(C)Nc1ncc2c(=O)n(C3CCN(CC(=O)N(C)C)CC3)cc([C@H]3CC[C@@H](O)CC3)c2n1 (some centres unmarked)
-- reply ≥ 7.00

-- ask Try the molecule CNC(=O)Nc1ccc(-c2cnc(OC3CCOCC3)c3cnc(N[C@@H](C)COC)nc23)cc1
-- reply 6.00 to 7.00

-- ask Try the molecule COC[C@H](C)Nc1ncc2c(OC3CCOCC3)ncc([C@H]3CC[C@H](NC(C)=O)CC3)c2n1
-- reply 6.00 to 7.00

-- ask Try the molecule COC[C@H](C)Nc1ncc2c(OC3C[C@H](C)N(C)[C@@H](C)C3)ncc([C@H]3CC[C@H](O)CC3)c2n1 (some centres unmarked)
-- reply ≥ 7.00

-- ask Try the molecule CC[C@H](C)Nc1ncc2c(OC3CCN(C)CC3)ncc([C@H]3CC[C@H](O)CC3)c2n1
-- reply ≥ 7.00
